Sourced from ChEMBL document CHEMBL5678802

Target: Protein kinase C beta type (Homo sapiens)
Assay: Inhibition of human PKCbeta1 in presence of ATP
property: IC50 (nM)
Respond numerically; units are nM and should not be typed.

Query :: Identify measured IC50 associated with `Cc1nc(Nc2n[nH]c3c2CN(C(=O)N[C@H](CN(C)C)c2ccccc2)C3(C)C)c2sccc2n1`
Result :: 280

###

Biological target: Tyrosine-protein kinase Fgr (Homo sapiens)
Sequence (P09769 whole entry): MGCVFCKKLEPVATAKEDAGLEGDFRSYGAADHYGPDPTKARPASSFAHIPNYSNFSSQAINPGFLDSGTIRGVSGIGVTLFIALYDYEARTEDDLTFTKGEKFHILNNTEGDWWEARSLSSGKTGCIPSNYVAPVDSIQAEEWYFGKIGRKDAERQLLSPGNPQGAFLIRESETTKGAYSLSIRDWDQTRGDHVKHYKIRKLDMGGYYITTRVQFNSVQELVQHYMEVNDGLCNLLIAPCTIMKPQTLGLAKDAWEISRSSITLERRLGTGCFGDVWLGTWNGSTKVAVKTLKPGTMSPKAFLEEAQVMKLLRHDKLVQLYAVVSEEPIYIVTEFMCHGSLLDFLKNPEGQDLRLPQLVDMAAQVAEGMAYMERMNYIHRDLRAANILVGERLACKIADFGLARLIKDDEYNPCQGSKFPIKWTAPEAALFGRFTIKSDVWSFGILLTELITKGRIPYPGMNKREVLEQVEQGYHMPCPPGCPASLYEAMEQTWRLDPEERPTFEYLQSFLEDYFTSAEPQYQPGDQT
Experiment: Inhibition of human FGR in presence of ATP
property: pIC50
Formally, pIC50 is defined as -log10 of the concentration c, with c in mol/L.

Query :: Identify measured pIC50 associated with `Cc1nc(Nc2n[nH]c3c2CN(C(=O)N[C@H](CN(C)C)c2ccccc2)C3(C)C)c2sccc2n1`
Result :: 7.63

###

Test system: NCI-H226
Assay: Antiproliferative activity against human NCI-H226 cells assessed as inhibition of cell proliferation incubated for 3 days by CellTiter-Glo Luminescent Cell Viability Assay
Assay type: functional, cell-based
Details: NCI-H226, 72 h
property: IC50
Number plus unit, in that order.

Query :: Identify measured IC50 associated with `Cc1nc(Nc2n[nH]c3c2CN(C(=O)N[C@H](CN(C)C)c2ccccc2)C3(C)C)c2sccc2n1`
Result :: 9.3 nM

###

Target: Serine/threonine-protein kinase Chk2 (Homo sapiens, UniProt O96017)
Sequence (O96017 whole entry): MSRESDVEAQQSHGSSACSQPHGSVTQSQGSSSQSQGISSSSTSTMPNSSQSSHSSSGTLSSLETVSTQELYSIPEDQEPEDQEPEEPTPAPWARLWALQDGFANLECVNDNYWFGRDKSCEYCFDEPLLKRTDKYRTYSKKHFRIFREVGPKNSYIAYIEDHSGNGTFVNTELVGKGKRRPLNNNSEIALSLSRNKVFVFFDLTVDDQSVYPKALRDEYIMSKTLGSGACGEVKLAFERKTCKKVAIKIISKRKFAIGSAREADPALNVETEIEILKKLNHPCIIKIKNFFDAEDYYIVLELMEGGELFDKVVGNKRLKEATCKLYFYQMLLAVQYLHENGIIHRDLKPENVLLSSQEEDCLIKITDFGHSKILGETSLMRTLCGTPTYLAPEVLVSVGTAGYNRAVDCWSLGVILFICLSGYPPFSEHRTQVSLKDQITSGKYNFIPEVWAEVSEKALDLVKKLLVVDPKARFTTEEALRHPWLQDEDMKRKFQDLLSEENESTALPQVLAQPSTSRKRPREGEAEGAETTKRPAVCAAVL
Assay: Inhibition of human CHK2 in presence of ATP by cellular assay
property: IC50 (nM)
Respond numerically; units are nM and should not be typed.

Query :: Identify measured IC50 associated with Cc1nc(Nc2n[nH]c3c2CN(C(=O)N[C@H](CN(C)C)c2ccccc2)C3(C)C)c2sccc2n1 [PF-03758309]
Result :: 302

###

Assay: Drug concentration in nude mouse plasma xenografted with human HCT-116 cells at 3.3 mg/kg administered via pump for 9 days by LC-MS/MS analysis
Format: ADME, organism-based
Details: time 9 day
property: concentration at 216 h (ng/mL)
Respond numerically; units are ng/mL and should not be typed.

Query :: Identify measured concentration at 216 h associated with Cc1nc(Nc2n[nH]c3c2CN(C(=O)N[C@H](CN(C)C)c2ccccc2)C3(C)C)c2sccc2n1 [PF-03758309]
Result :: 37

###

Biological target: RAC-gamma serine/threonine-protein kinase (Homo sapiens)
Sequence (Q9Y243 whole entry): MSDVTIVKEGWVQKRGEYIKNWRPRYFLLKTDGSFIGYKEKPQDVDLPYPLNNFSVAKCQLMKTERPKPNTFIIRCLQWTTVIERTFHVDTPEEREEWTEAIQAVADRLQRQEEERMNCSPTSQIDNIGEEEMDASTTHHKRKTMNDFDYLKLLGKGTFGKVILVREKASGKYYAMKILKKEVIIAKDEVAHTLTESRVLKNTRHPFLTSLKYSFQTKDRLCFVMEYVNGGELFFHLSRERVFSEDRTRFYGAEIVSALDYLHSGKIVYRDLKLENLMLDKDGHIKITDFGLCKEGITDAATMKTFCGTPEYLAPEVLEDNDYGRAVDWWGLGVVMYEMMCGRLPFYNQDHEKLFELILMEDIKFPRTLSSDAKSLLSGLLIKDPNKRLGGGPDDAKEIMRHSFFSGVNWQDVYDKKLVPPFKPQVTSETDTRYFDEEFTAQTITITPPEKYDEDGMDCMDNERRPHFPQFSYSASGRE
Assay: Inhibition of human AKT3 in presence of ATP by cellular assay
property: IC50 (µM)
Respond numerically; units are µM and should not be typed.

Query :: Identify measured IC50 associated with `Cc1nc(Nc2n[nH]c3c2CN(C(=O)N[C@H](CN(C)C)c2ccccc2)C3(C)C)c2sccc2n1`
Result :: 3.6

###

Target: Protein kinase C gamma type (Homo sapiens, UniProt P05129)
Assay: Inhibition of human PKCgamma in presence of ATP
property: IC50
Number plus unit, in that order.

Query :: Identify measured IC50 associated with Cc1nc(Nc2n[nH]c3c2CN(C(=O)N[C@H](CN(C)C)c2ccccc2)C3(C)C)c2sccc2n1 [PF-03758309]
Result :: 59.2 nM

###

Molecular target: Ribosomal protein S6 kinase alpha-3 (Homo sapiens, UniProt P51812)
Sequence (P51812 whole entry): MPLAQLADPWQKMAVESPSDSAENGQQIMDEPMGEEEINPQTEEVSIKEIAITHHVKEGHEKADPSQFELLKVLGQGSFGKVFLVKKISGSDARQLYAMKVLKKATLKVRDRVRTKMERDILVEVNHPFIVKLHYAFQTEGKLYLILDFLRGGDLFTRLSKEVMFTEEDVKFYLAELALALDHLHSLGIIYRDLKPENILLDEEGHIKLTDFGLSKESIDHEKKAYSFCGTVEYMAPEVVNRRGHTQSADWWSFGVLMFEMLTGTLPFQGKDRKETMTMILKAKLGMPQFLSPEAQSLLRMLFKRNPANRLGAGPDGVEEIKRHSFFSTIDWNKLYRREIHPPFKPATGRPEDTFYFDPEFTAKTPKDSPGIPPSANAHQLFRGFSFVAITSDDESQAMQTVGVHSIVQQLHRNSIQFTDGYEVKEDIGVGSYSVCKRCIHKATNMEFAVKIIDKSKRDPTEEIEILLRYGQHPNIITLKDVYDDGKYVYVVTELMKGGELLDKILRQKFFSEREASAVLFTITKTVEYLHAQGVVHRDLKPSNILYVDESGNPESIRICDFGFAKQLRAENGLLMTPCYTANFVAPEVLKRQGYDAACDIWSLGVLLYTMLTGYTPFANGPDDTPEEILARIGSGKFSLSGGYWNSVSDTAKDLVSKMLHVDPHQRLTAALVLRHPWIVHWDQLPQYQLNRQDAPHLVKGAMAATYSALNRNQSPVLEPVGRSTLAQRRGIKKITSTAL
Assay: Inhibition of human RSK2 in presence of ATP
property: IC50
Number plus unit, in that order.

Query :: Identify measured IC50 associated with `Cc1nc(Nc2n[nH]c3c2CN(C(=O)N[C@H](CN(C)C)c2ccccc2)C3(C)C)c2sccc2n1`
Result :: 2 nM

###

System: NCI-H82
Experiment: Antiproliferative activity against human NCI-H82 cells assessed as inhibition of cell proliferation incubated for 3 days by CellTiter-Glo Luminescent Cell Viability Assay
Type: functional, cell-based
Conditions: NCI-H82, 72 h
property: IC50 (nM)
Respond numerically; units are nM and should not be typed.

Query :: Identify measured IC50 associated with `Cc1nc(Nc2n[nH]c3c2CN(C(=O)N[C@H](CN(C)C)c2ccccc2)C3(C)C)c2sccc2n1`
Result :: 2.1

###

Tested on: NCI-H1581
Assay: Antiproliferative activity against human NCI-H1581 cells assessed as inhibition of cell proliferation incubated for 3 days by CellTiter-Glo Luminescent Cell Viability Assay
Format: functional, cell-based
Settings: NCI-H1581, 72 h
property: IC50 (nM)
Respond numerically; units are nM and should not be typed.

Query :: Identify measured IC50 associated with Cc1nc(Nc2n[nH]c3c2CN(C(=O)N[C@H](CN(C)C)c2ccccc2)C3(C)C)c2sccc2n1 [PF-03758309]
Result :: 0.6

###

Target: Protein kinase C beta type (Homo sapiens, UniProt P05771)
Sequence (P05771 whole entry): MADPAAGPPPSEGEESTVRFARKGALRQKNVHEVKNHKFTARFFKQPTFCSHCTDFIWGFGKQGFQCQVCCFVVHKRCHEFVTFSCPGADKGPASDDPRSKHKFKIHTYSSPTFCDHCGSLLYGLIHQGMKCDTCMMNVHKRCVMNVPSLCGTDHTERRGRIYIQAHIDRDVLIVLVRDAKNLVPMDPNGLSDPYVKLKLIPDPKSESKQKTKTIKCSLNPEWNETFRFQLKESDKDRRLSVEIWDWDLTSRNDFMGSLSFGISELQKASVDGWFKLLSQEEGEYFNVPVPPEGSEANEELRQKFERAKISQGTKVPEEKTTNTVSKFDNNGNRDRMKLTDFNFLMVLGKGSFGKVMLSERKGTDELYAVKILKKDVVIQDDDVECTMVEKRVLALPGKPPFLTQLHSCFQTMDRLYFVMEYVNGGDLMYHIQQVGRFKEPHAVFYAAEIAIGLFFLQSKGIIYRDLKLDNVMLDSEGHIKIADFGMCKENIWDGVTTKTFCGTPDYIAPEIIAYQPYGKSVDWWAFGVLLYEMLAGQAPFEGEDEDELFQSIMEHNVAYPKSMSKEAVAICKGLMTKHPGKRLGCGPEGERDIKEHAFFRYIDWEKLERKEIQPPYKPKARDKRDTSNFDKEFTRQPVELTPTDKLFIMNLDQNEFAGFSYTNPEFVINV
property: Ki (µM)
Respond numerically; units are µM and should not be typed.

Query :: Identify measured Ki associated with `Cc1nc(Nc2n[nH]c3c2CN(C(=O)N[C@H](CN(C)C)c2ccccc2)C3(C)C)c2sccc2n1`
Result :: 0.185

###

Target: UniProt:P05771
Assay: Inhibition of human PKCbeta1 in presence of ATP by cellular assay
property: IC50 (nM)
Respond numerically; units are nM and should not be typed.

Query :: Identify measured IC50 associated with `Cc1nc(Nc2n[nH]c3c2CN(C(=O)N[C@H](CN(C)C)c2ccccc2)C3(C)C)c2sccc2n1`
Result :: 2490

###

System: Panc1005
Assay: Antiproliferative activity against human Panc1005 cells assessed as inhibition of cell proliferation incubated for 3 days by CellTiter-Glo Luminescent Cell Viability Assay
Type: functional, cell-based
Details: Panc1005, 72 h
property: IC50
Number plus unit, in that order.

Query :: Identify measured IC50 associated with `Cc1nc(Nc2n[nH]c3c2CN(C(=O)N[C@H](CN(C)C)c2ccccc2)C3(C)C)c2sccc2n1`
Result :: 67 nM

###

Molecular target: Protein kinase C theta type (Homo sapiens)
Sequence (Q04759 whole entry): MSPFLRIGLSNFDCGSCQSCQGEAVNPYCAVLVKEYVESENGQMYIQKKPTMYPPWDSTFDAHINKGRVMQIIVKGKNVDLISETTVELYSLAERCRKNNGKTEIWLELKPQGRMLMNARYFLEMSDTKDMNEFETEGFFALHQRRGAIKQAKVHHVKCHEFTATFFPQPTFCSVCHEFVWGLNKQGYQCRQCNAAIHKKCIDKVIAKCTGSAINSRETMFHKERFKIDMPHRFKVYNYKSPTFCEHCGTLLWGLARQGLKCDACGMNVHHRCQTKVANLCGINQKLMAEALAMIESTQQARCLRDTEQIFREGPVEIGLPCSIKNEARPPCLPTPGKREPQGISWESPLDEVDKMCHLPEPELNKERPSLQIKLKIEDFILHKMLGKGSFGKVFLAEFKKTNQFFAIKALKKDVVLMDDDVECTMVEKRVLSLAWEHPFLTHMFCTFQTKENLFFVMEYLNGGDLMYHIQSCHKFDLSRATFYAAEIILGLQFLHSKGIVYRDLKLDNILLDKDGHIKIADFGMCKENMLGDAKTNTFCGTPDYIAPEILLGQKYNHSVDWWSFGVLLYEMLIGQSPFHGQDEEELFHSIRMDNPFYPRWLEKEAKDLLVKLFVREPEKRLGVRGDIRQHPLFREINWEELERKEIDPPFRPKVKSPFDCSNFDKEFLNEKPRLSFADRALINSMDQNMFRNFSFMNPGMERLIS
Test: Inhibition of human PKCtheta in presence of ATP
property: pIC50
Formally, pIC50 is defined as -log10 of the concentration c, with c in mol/L.

Query :: Identify measured pIC50 associated with Cc1nc(Nc2n[nH]c3c2CN(C(=O)N[C@H](CN(C)C)c2ccccc2)C3(C)C)c2sccc2n1 [PF-03758309]
Result :: 7.55

###

Target: Tyrosine-protein kinase Yes (Homo sapiens, UniProt P07947)
Sequence (P07947 whole entry): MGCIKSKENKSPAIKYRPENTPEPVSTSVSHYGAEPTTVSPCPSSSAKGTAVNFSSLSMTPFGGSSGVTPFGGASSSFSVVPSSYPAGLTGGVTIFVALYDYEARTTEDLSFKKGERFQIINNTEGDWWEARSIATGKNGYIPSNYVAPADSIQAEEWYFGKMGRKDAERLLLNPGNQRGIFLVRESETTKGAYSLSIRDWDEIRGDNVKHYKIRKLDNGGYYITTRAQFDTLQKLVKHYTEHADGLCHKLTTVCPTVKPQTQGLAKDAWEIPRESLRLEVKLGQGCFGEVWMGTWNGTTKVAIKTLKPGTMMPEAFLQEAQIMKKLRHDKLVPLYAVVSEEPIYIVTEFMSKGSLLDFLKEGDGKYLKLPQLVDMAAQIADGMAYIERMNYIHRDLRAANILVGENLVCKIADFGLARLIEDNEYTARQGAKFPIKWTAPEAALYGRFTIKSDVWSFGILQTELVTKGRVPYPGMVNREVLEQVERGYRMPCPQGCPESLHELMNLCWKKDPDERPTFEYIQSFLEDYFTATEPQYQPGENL
Test: Inhibition of human YES1 in presence of ATP
property: IC50
Number plus unit, in that order.

Query :: Identify measured IC50 associated with `Cc1nc(Nc2n[nH]c3c2CN(C(=O)N[C@H](CN(C)C)c2ccccc2)C3(C)C)c2sccc2n1`
Result :: 47 nM

###

Target: Tyrosine-protein kinase Yes (Homo sapiens, UniProt P07947)
property: Ki (nM)
Respond numerically; units are nM and should not be typed.

Query :: Identify measured Ki associated with `Cc1nc(Nc2n[nH]c3c2CN(C(=O)N[C@H](CN(C)C)c2ccccc2)C3(C)C)c2sccc2n1`
Result :: 43

###

Molecular target: Protein kinase C beta type (Homo sapiens)
Assay: Inhibition of human PKCbeta-II in presence of ATP by cellular assay
property: IC50 (nM)
Respond numerically; units are nM and should not be typed.

Query :: Identify measured IC50 associated with `Cc1nc(Nc2n[nH]c3c2CN(C(=O)N[C@H](CN(C)C)c2ccccc2)C3(C)C)c2sccc2n1`
Result :: 1390

###

System: MDA-MB-361
Test: Antiproliferative activity against human MDA-MB-361 cells assessed as inhibition of cell proliferation incubated for 3 days by CellTiter-Glo Luminescent Cell Viability Assay
Type: functional, cell-based
Conditions: MDA-MB-361, 72 h
property: IC50
Number plus unit, in that order.

Query :: Identify measured IC50 associated with `Cc1nc(Nc2n[nH]c3c2CN(C(=O)N[C@H](CN(C)C)c2ccccc2)C3(C)C)c2sccc2n1`
Result :: 6.9 nM

###

Biological target: Ribosomal protein S6 kinase alpha-1 (Homo sapiens, UniProt Q15418)
Sequence (Q15418 whole entry): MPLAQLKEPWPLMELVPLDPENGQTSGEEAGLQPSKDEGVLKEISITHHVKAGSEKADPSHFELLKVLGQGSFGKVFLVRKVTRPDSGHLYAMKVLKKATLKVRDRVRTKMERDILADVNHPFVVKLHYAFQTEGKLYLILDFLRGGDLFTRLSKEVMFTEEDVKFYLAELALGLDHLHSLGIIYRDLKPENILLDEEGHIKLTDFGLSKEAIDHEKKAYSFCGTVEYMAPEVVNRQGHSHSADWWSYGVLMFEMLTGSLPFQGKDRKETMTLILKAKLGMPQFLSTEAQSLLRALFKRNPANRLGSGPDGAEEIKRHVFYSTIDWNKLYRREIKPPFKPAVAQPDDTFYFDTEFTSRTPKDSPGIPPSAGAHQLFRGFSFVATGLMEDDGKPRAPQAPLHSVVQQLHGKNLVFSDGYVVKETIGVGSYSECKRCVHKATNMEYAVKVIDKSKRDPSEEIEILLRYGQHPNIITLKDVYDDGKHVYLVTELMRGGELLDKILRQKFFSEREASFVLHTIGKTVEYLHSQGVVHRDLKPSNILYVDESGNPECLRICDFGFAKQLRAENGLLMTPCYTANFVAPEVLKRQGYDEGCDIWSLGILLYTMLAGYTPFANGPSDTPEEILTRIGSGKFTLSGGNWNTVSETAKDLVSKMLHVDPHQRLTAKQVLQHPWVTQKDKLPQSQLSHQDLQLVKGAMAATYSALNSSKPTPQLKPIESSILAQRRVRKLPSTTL
Experiment: Inhibition of human RSK1 in presence of ATP by cellular assay
property: IC50 (nM)
Respond numerically; units are nM and should not be typed.

Query :: Identify measured IC50 associated with `Cc1nc(Nc2n[nH]c3c2CN(C(=O)N[C@H](CN(C)C)c2ccccc2)C3(C)C)c2sccc2n1`
Result :: 543

###

System: T84
Experiment: Antiproliferative activity against human T84 cells assessed as inhibition of cell proliferation incubated for 3 days by CellTiter-Glo Luminescent Cell Viability Assay
Format: functional, cell-based
Settings: T84, 72 h
property: IC50 (nM)
Respond numerically; units are nM and should not be typed.

Query :: Identify measured IC50 associated with Cc1nc(Nc2n[nH]c3c2CN(C(=O)N[C@H](CN(C)C)c2ccccc2)C3(C)C)c2sccc2n1 [PF-03758309]
Result :: 89

###

System: NCI-H1838
Experiment: Inhibition of anchorage independent cell growth in human NCI-H1838 cells incubated for 6 days by Alamar blue reagent based fluorescence plate reader analysis
Assay type: functional
Conditions: NCI-H1838, 144 h
property: IC50 (nM)
Respond numerically; units are nM and should not be typed.

Query :: Identify measured IC50 associated with `Cc1nc(Nc2n[nH]c3c2CN(C(=O)N[C@H](CN(C)C)c2ccccc2)C3(C)C)c2sccc2n1`
Result :: 9.59
